Recorded values, source the supplement of paper PMC12067926.

# System: Arthrobacter 1 (Arthrobacter humicola)
# assay.procedure: relative growth (AUC of 72 h growth curve relative to DMSO control, dAUC) (ratio); higher = more growth (less inhibition), active = hit call of the paper
# measurement.context: 20 µM
relative growth of 0.9 or higher: true (1). Under 0.9: false (0).

Please review the entries below; each comes with its answer.
| molecule | group.label |
| --- | --- |
| CSc1nnc(C(C)(C)C)c(=O)n1N | true (1) |
| CN/C(=N/CC1CCOC1)N[N+](=O)[O-] (stereo unspecified) | true (1) |
| CC1=NNC(=O)N(/N=C/c2cccnc2)C1 | true (1) |
| CCOC(=O)OC1=C(c2cc(C)ccc2C)C(=O)N[C@]12CC[C@@H](OC)CC2 | true (1) |
| CC1(C)CON(Cc2ccccc2Cl)C1=O | true (1) |
| COC(=O)Nc1nc2ccccc2[nH]1 | true (1) |

Does relative growth meet or surpass 0.9 for Cc1cc(C(F)(C(F)(F)F)C(F)(F)F)ccc1NC(=O)c1cccc(I)c1C(=O)NC(C)(C)CS(C)(=O)=O ? false (0)

====

Catalogue of relative growth values
# Test system: Flavobacterium 1 (Flavobacterium glaciei)
# assay.procedure: relative growth (AUC of 72 h growth curve relative to DMSO control, dAUC) (ratio); higher = more growth (less inhibition), active = hit call of the paper
# measurement.context: 20 µM
The answer should be written as a number, with no unit following it.

// solved cases for relative growth follow
| compound | relative growth |
| --- | --- |
| O=C(O)CNCP(=O)(O)O | 0.964 |
| O=C1C2CC=CCC2C(=O)N1SC(Cl)(Cl)Cl (centres undefined) | 0.948 |
| Fc1ccc(Oc2ccnc3cc(Cl)cc(Cl)c23)cc1 | 1.04 |
| C[C@@H]1[C@@H](c2ccc(Cl)cc2)SC(=O)N1C(=O)NC1CCCCC1 | 0.937 |
| CC1=NNC(=O)N(/N=C/c2cccnc2)C1 | 1.04 |

# input for lookup
Would you please give the reported relative growth of COC(=O)N(OC)c1ccccc1COc1ccn(-c2ccc(Cl)cc2)n1 with Flavobacterium 1 (Flavobacterium glaciei)? 0.969

====

# System: Pseudomonas 1 (Pseudomonas baetica)
# assay.procedure: relative growth (AUC of 72 h growth curve relative to DMSO control, dAUC) (ratio); higher = more growth (less inhibition), active = hit call of the paper
# measurement.context: 20 µM
recorded.metric: relative growth
The answer should be written as a number, with no unit following it.

| compound | relative growth |
| --- | --- |
| CC(C)N1C(=O)N(c2ccccc2)CS/C1=N\C(C)(C)C | 1.05 |
| O=C(O)c1nc(Cl)ccc1Cl | 1 |
| CC1(C)C(C=C(Cl)Cl)C1C(=O)OC(C#N)c1ccc(F)c(Oc2ccccc2)c1 (centres undefined) | 1.22 |
| CCc1nn(C)c(C(=O)NCc2ccc(Oc3ccc(C)cc3)cc2)c1Cl | 1.08 |
| CCCC(Cn1cncn1)c1ccc(Cl)cc1Cl (centres undefined) | 1.01 |

Consider the compound CCCN(CCC)C(=O)SCc1ccccc1 and give its recorded relative growth. 1.03

Consider the compound COCC(=O)N(c1c(C)cccc1C)[C@H](C)C(=O)OC and give its recorded relative growth. 0.997

Consider the compound O=C1C2(Cl)C3(Cl)C4(Cl)C(Cl)(Cl)C5(Cl)C3(Cl)C1(Cl)C5(Cl)C24Cl (centres undefined) and give its recorded relative growth. 1.01

Consider the compound CON(C)C(=O)Nc1ccc(Cl)c(Cl)c1 and give its recorded relative growth. 0.986

====

# Test system: Oryzobacter 1 (Oryzobacter terrae)
# assay.procedure: relative growth (AUC of 72 h growth curve relative to DMSO control, dAUC) (ratio); higher = more growth (less inhibition), active = hit call of the paper
# measurement.context: 20 µM
recorded.metric: relative growth

| compound | test.target | relative growth |
| --- | --- | --- |
| N#CCNC(=O)c1cnccc1C(F)(F)F | Oryzobacter 1 (Oryzobacter terrae) | 1.09 (inactive) |
| CC1(C)C(C=C(Cl)Cl)C1C(=O)OC(C#N)c1cccc(Oc2ccccc2)c1 (stereo not given) | Oryzobacter 1 (Oryzobacter terrae) | 1.07 (inactive) |
| Fc1ccc([C@]2(Cn3cncn3)O[C@H]2c2ccccc2Cl)cc1 (racemic) | Oryzobacter 1 (Oryzobacter terrae) | 1.13 (inactive) |

Would you please give the reported relative growth of COC(=O)c1ccccc1S(=O)(=O)NC(=O)Nc1nc(C)nc(OC)n1 with Oryzobacter 1 (Oryzobacter terrae)? 0.997 (inactive)

Would you please give the reported relative growth of COC(=O)N(OC)c1ccccc1COc1ccn(-c2ccc(Cl)cc2)n1 with Oryzobacter 1 (Oryzobacter terrae)? 1.17 (inactive)

Would you please give the reported relative growth of C[N+](C)(C)CCCl with Oryzobacter 1 (Oryzobacter terrae)? 1.05 (inactive)

Would you please give the reported relative growth of CNC(=O)Oc1cccc(/N=C/N(C)C)c1 with Oryzobacter 1 (Oryzobacter terrae)? 1.05 (inactive)

Would you please give the reported relative growth of COC(=O)NC(=S)Nc1ccccc1NC(=S)NC(=O)OC with Oryzobacter 1 (Oryzobacter terrae)? 0.947 (inactive)

Would you please give the reported relative growth of N#Cc1sc2c(=O)c3ccccc3c(=O)c=2sc1C#N with Oryzobacter 1 (Oryzobacter terrae)? 0.898 (inactive)

Would you please give the reported relative growth of CC(C)N1C(=O)c2ccccc2NS1(=O)=O with Oryzobacter 1 (Oryzobacter terrae)? 1.02 (inactive)

Would you please give the reported relative growth of Clc1ccc(C(c2ccc(Cl)cc2)C(Cl)(Cl)Cl)cc1 with Oryzobacter 1 (Oryzobacter terrae)? 1.06 (inactive)

====

Catalogue of relative growth values
# Tested on: Aeromonas 2 (Aeromonas sobria)
# assay.procedure: relative growth (AUC of 72 h growth curve relative to DMSO control, dAUC) (ratio); higher = more growth (less inhibition), active = hit call of the paper
# measurement.context: 20 µM

// solved cases for relative growth follow
| compound | relative growth |
| --- | --- |
| COCC(=O)N(c1c(C)cccc1C)[C@H](C)C(=O)OC | 1.01 (inactive) |
| O=C(O)CNCP(=O)(O)O | 1 (inactive) |
| CNC(=O)CSP(=S)(OC)OC | 0.984 (inactive) |

Consider the compound Fc1ccc([C@]2(Cn3cncn3)O[C@H]2c2ccccc2Cl)cc1 (racemic) and give its recorded relative growth. 0.979 (inactive)

Consider the compound Cc1ccc(/N=C/N(C)/C=N/c2ccc(C)cc2C)c(C)c1 and give its recorded relative growth. 0.995 (inactive)

Consider the compound Clc1ccc(C(c2ccc(Cl)cc2)C(Cl)(Cl)Cl)cc1 and give its recorded relative growth. 0.972 (inactive)

Consider the compound CNC(=O)/C=C(\C)OP(=O)(OC)OC and give its recorded relative growth. 0.972 (inactive)

Consider the compound Cc1cc(C(F)(C(F)(F)F)C(F)(F)F)ccc1NC(=O)c1cccc(I)c1C(=O)NC(C)(C)CS(C)(=O)=O and give its recorded relative growth. 0.974 (inactive)

Consider the compound CNC(=O)c1cc(C#N)cc(C)c1NC(=O)c1cc(Br)nn1-c1ncccc1Cl and give its recorded relative growth. 0.95 (inactive)

Consider the compound CCCSP(=O)(OCC)Oc1ccc(Br)cc1Cl (stereo not given) and give its recorded relative growth. 1.02 (inactive)

Consider the compound CCCCOC(=O)[C@H](C)Oc1ccc(Oc2ccc(C#N)cc2F)cc1 and give its recorded relative growth. 1.07 (inactive)

Consider the compound CNC(=O)Oc1cccc2ccccc12 and give its recorded relative growth. 0.918 (inactive)

Consider the compound CC(C)(C)C(O)(CCc1ccc(Cl)cc1)Cn1cncn1 (stereo not given) and give its recorded relative growth. 0.917 (inactive)

Consider the compound COC(=O)N(OC)c1ccccc1COc1ccn(-c2ccc(Cl)cc2)n1 and give its recorded relative growth. 0.927 (inactive)

Consider the compound CCOC(=O)OC1=C(c2cc(C)ccc2C)C(=O)N[C@]12CC[C@@H](OC)CC2 and give its recorded relative growth. 0.981 (inactive)

====

# Test system: Pseudomonas 2 (Pseudomonas vancouverensis)
# assay.procedure: relative growth (AUC of 72 h growth curve relative to DMSO control, dAUC) (ratio); higher = more growth (less inhibition), active = hit call of the paper
# measurement.context: 20 µM
recorded.metric: relative growth
The answer should be written as a number, with no unit following it.

// solved cases for relative growth follow
| compound | relative growth |
| --- | --- |
| CC(C)(C)C(O)(CCc1ccc(Cl)cc1)Cn1cncn1 (configuration not stated) | 0.962 |
| COP(=O)(NC(C)=O)SC (configuration not stated) | 1.02 |
| N#Cc1sc2c(=O)c3ccccc3c(=O)c=2sc1C#N | 0.929 |
| CC(COc1ccc(Oc2ccccc2)cc1)Oc1ccccn1 (configuration not stated) | 1 |
| O=C(Nc1ccc(F)cc1F)c1cccnc1Oc1cccc(C(F)(F)F)c1 | 1.01 |

Consider the compound CS(=O)(=O)NC(=O)c1cc(Oc2ccc(C(F)(F)F)cc2Cl)ccc1[N+](=O)[O-] and give its recorded relative growth. 1

Consider the compound CS(=O)(=O)c1cc(C(F)(F)F)ccc1C(=O)c1cnoc1C1CC1 and give its recorded relative growth. 1.02

Consider the compound CCSC(C)CC1CC(=O)C(/C(CC)=N/OC/C=C/Cl)=C(O)C1 (mixture of isomers) and give its recorded relative growth. 0.999

Consider the compound CC1(C)[C@H](C(=O)O[C@H](C#N)c2cccc(Oc3ccccc3)c2)[C@@H]1C=C(Br)Br and give its recorded relative growth. 1.03
